- Assay overview: label from the status in PepcDB records
Recorded metric: protein production

>>> value_measured("MAQPSTTYKFELNLTDLDRGVYESVKQTIARHPSETEERMTVRLLAYAFWYNEQLAFGRGLSDVDEPALWEKSLDDRVLHWIEVGQPDADRLTWCSRRTERTSLLAYGSLRVWEGKVIPAIKNLKNVNIAAVPQDVLEVLAKDMPRVIKWDVMISEGTVFVTDDRGQHEVQLQWLTGERG")
"not failed"
>>> value_measured("MLIFKIFRRSEWDDFRRAGATAGAPVDLADGYIHFSTAAQVAETAAKHFTAESDLVLVAIDPDRAGPDLKWEPSRGEQLFPHLYRRLTLDDVVWDKSLPLGATGHIFPEGLWLEHHHHHH")
"not failed"

====

- Assay overview: label from the status in PepcDB records
Recorded metric: protein production

>>> value_measured("MPYKNILTLISVNNDNFENYFRKIFLDVRSSGSKKTTINVFTEIQYQELVTLIREALLENIDIGYELFLWKKNEVDIFLKNLEKSEVDGLLVYCDDENKVFMSKIVDNLPTAIKRNLIKDFCRKLS")
"not failed"
>>> value_measured("MHHQRKTHVDNNIAAVELAKAYRLLNHGPTVLVSARSQGIDNVMAAAWCCALDFAPPKLTVVLDKMTKTREFIEQSGMFVIQVPTVAQLQLTHRVGSQSLADDANKLLNCGVELFEMAGHDLPFVAGCSAWLACKLIPEPNNQLQYDLFIAEVIGAWADTQVFNHGHWHFDTAPADKRSLHYIAGGQFYAIGESFNAD")
"not failed"
>>> value_measured("FAMESYFKGDSGEAELLAVAHKVQSDAWALQKAAGIAVIGLDGTLYDQVLDTITWLGAIPPRFKHLSGLQRYYAMARGGAALDMSKFFDTNYHYLVPELGPDVLGPATAAGAPLQPDFSGPLDKLARGQAVVGRERAVPILIGPVTFVSLSRGCELPLDQAVARLLPTYCALLQQLAAAGAPEVQLHEPVLATSEGAGMRAEFETAYAQMAQAAGSVPLHLVTYYDDLGAAYPWAVQLPVAAVTLDFLGPPGAAVPSQTLALLQQHGFPADKRLGAGVVDGRSVWKDDGTAVALLRALLDTGAVSSDRLVVTSSAPLQHLPYDLGLELEAPKTPEAEPHLPPALAARLGFAKQKVEEIVSVARLAASPAAAAAAAGHGAVVQLQRLQQGKGVEDHTAD")
"failed"
>>> value_measured("MSLAILTTAYAKIIGLDFSYRKVSTLPIFTKKEDVILSSSHVQTIIYDPSFIADQNTFYLANPAVVIDYFPSKSHRSGIKFSLETFLAMYYKNIAADALADKDLNKSFLYANKAYQLDTDNIETINLLAVIHRRSGDLQTAEAIYKTGMDKGQTNIALLSNYIMLLKSQRRMDEVNTLQDKLNQLDDPDPYQWLGEAYTAKNVGNIKQAEIYFKKALSKAPYLNQAYMGLYKIYIKQNKLKKAQTMLVKALEWTYELDERKLYKYKLYNIEHNIAAIN")
"failed"

====

- Assay overview: label from the status in PepcDB records
Recorded metric: protein production

>>> value_measured("VADTDGHYRVRAITEISSFNETLGATFSDKEFDTIGGLVINKFGRLPKNGESITIEGFNFTVTRADSRRLHLLKVERIEPGVVEDADSHDSV")
"not failed"
>>> value_measured("MKLIAIDLDGTLLNSKHQVSLENENALRQAQRDGIEVVVSTGRAHFDVMSIFEPLGIKTWVISANGAVIHDPEGRLYHHETIDKKRAYDILSWLESENYYYEVFTGSAIYTPQNGRELLDVELDRFRSANPEADLSVLKQAAEVQYSQSGFAYINSFQELFEADEPIDFYNILGFSFFKEKLEAGWKRYEHAEDLTLVSSAEHNFELSSRKASKGQALKRLAKQLNIPLEETAAVGDSLNDKSMLEAAGKGVAMGNAREDIKSIADAVTLTNDEHGVAHMMKHLL")
"not failed"
>>> value_measured("MTATEPTEKILPSPDYVQSLARGLAVIRCFDHRNQRRTLSDVARATDLTRATARRFLLTLVELGYVATDGSAFWLTPRVLELGYSYLSSLSLPEVAQPHLEKLSHKVHESSSVSILDGADIVYVARVPVSRIMTVGITIGTRLPAYATSMGRVLLAGLPDDELDAYLEKLDIQRLTERTITARDELKAAILAVRADGICVLDQELEAGLRSMAAPIRGASGLTVAAVNISTPAARYSLEDLHSDLIPSLRVTATDIEQDLATVNR")
"not failed"

====

- Assay overview: label from the status in PepcDB records
Recorded metric: protein production

>>> value_measured("KELIQNIIEESYTDSQFTLSVLSEKLDLSSGYLSIMFKKNFGIPFQDYLLQKRMEKAKLLLLTTELKNYEIAEQVGFEDVNYFITKFKKYYQITPKQYRE")
"not failed"
>>> value_measured("MHTDVNALFAALWQDYIKMTPSAAKIHQLLGHGAPIINDHIALRTFNIAKVNLSVLAKHFTSIGYVDSGDYKFEQKKLIAKHFEHPDPKQPKVFISELLVEEFSPEVQKSIHGLIDQVDIAATTADNFIYSGRHWDVDKATYQALLAESEYAAWVAALGYRANHFTVSINDLPEFERIEDVNQALKQAGFVLNSSGGEVKGSPEVLLEQSSTMADKVVVNFTDGDVEIPSCFYEFARRYPMANGQLYTGFVAASADKIFESTNAMM")
"not failed"
>>> value_measured("MQALTTYKCIEKGIVVWLTGLPGSGKTTIATRLADLLQKEGYRVEVLDGDWARTTVSEGAGFTREERLRHLKRIAWIARLLARNGVIVICSFVSPYKQARNMVRRIVEEEGIPFLEIYVKASLEEVIRRDPKGLYKKALKGELENFTGITDPYEPPENPQLVLDTESNTIEHNVSYLYSLVKAVIE")
"not failed"

====

- Assay overview: label from the status in PepcDB records
Recorded metric: protein production

>>> value_measured("MLLTIIYIIAITAEAMTGALSAGRRSMDWFGVILIACVTALGGGSVRDVLLGHYPLTWVKHPEYLVLTCCAALFTILIAKWMRHLRNIFLILDALGLIGFTIIGCQIALQMGHGFVVSAVAGVLTGVSGGILRDILCNDVPLVFRRELYASISFVAVICYWLCLNIGMSLELTVIFTLIFGFVLRLIAIYFGLEMPKFIYQEDDADSASSTDKH")
"failed"
>>> value_measured("MNSAALKSCLERENALVVEFLHALEAETEALMDRRAHESLQAAVQRKETLADDLAQLGAERDALLSGAGLASGPAGTDAAAAAHPELGPLWQALQANAAQAREHNQRNGTLIAVNLRHTQESLDALRQAAGTGAAATYDAQGRGKRGYSSA")
"not failed"
>>> value_measured("MKGDRERQADLSPREGPSVPRPVLLQTEPRSVFPGDTSRPWSPAALPARAPGDRWCGRRRRSPGNASYLDSDISEKSRSASEEEKSHALGACHCAENAFQDSQKSLVPSRGQKMTSGTKAKVPLTALSQKWKRDREQTLEAAYVPVVVDPRGQNPDTSIRFSFYNSQYSNSLNPFYTLQKPTCGYLYQRETDHTRKRFDVPPANLILWRT")
"failed"
>>> value_measured("SVSLVGPAPWGFRLQGGKDFNMPLTISSLKDGGKASQAHVRIGDVVLSIDGISAQGMTHLEAQNKIKACTGSLNMTLQRASAAAKSEPVS")
"not failed"

====

- Assay overview: label from the status in PepcDB records
Recorded metric: protein production

In the examples that follow, each entry is paired with its recorded protein production.
>>> value_measured("MDFYQFAEYIVLNYGYFGIFLIAFTEAVIQPILPDIFIIGASAFGLDSVTCALVASFGSLTGGYTGYFLGKKLGTNVFLKIFKEKYFIKGKAFFEKFGVWGVAIAGFTPIPYKVFAWLAGIFKMNLVSFGAGTLLGRIPRFLLVAYFGYSLGLLFGLHTP")
"failed"
>>> value_measured("MSLASFPVQILPNLYLGSARDSANLESLAKLGIRYILNVTPNLPNFFEKNGDFHYKQIPISDHWSQNLSRFFPEAIEFIDEALSQNCGVLVHSLAGVSRSVTVTVAYLMQKLHLSLNDAYDLVKRKKSNISPNFNFMGQLLDFERSLREGHHHHHH")
"not failed"
>>> value_measured("LEKAGDSVEITNEEAVIQYVNPAFENITLYNAREAMNKTVASLLRSPVEDAQLFEEINQTLKSGNTWKGQIRSRKKDGSYWVAQTIIVPVMDDELGRITQHIAIKQDIT")
"failed"
>>> value_measured("MEKVKKIVLIGASGFVGSALLNEALNRGFEVTAVVRHPEKIKIENEHLKVKKADVSSLDEVCEVCKGADAVISAFNPGWNNPDIYDETIKVYLTIIDGVKKAGVNRFLMVGGAGSLFIAPGLRLMDSGEVPENILPGVKALGEFYLNFLMKEKEIDWVFFSPAADMRPGVRTGRYRLGKDDMIVDIVGNSHISVEDYAAAMIDELEHPKHHQERFTIGYLEHHHHHH")
"failed"
>>> value_measured("MDISILQAVLIGLWTAFCFSGMLLGLYTNRCIVLSLGVGVILGDIQTALAVGAISELAYMGFGVGAGGTVPPNPIGPGIFGTLMAITTAGTKGKITPEAALALSTPIAVGIQFLQTATYTAFAGAPETAKKALQAGNFRGFKIAANGTIWAFAGLGFGLGVLGALSTQTLTDLFALIPPVLLNGLTLAGKMLPAIGFAMILSVMAKKELIPYILLGYVLAVYFGLPVLTPTANGDGVLTSVATNSVLGVPTIGVAIIATIFALLDIFRKPAAPTKETKTEGDNQDDWI")
"failed"
>>> value_measured("MLIRPFLQYILGAVLLAYVLYPLQIRLETYVSPMLAALSLVTLAVTGFVAPVVVVLASIMESADRILREFGTDPVQLDILESRIKGLTGVEVDIAGELVSSGRDIGTIIVERSTQAFSTITFHLIGIALALFLIYYLLKDGDDLVDWLHRTVPLPVDVQRDFYAEIDDVMLGVLFGHVFVAIVQGIVAGVGLAATGVPNAMFWTAVMVVLAMVPLIGTIPVWGGAVIYLYATDEPLLAVGLFLYSVIIVGLTDDYLRPFAVDRYAKLNPAVILLGILGGAYAFGVMGLLFGPVVLGALKAALRVGLDTWSQIDDGNIG")
"failed"

Give one value of protein production per listed sequence.
1. MDTKKIKTSCLINNYNYAAFLSEAVASTLRQTVKFDEIIIVDDASTDNSAEVIAKFAQQADIKYILKEKNQGQLSSFNEAFLNASGDIIFFLDADDAYEPEYLETVLNFYNRRSECDFVFCAYKKFGAVEGTFQDYEIDVDLGYSVIRTLCNGEWIGSITSTLSMRRDILRKVLPIPNTEDWRVRADDCLVWGASLVGAKKFYLSQPLVRYRIHQNNQFHNSKFVNTDKDYEYKRFWKRNSLFNYILQKNNLELPFLLAFTSLNELKTIPCPNNQDFISYLKIIFLFEKNVYWKIKGIFLLFNYLGKFLLNGKLQIR
2. MPEVRAERYIPAPPERVYRLAKDLEGLKPYLKEVESLEVVAREGARTRSRWVAVAMGKKVRWLEEEEWDDENLRNRFFSPEGDFDRYEGTWVFLPEGEGTRVVLTLTYELTIPIFGGLLRKLVQKLMQENVESLLKGLEERVLAASS
3. WRQRDEAEFTGVDDIPVRFVRFRAQHHDRVVVICPGRIESYVKYAELAYDLFHLGFDVLIIDHRGQGRSGRLLADPHLGHVNRFNDYVDDLAAFWQQEVQPGPWRKRYILAHSMGGAISTLFLQRHPGVCDAIALTAPMFGIVIRMPSFMARQILNWAEAHPRFRDGYAIGTGRWRALPFAINVLTHSRQRYRRNLRFYADDPTIRVGGPTYHWVRESILAGEQVLAGAGDDATPTLLLQAEEERVVDNRMHDRFCELRTAAGHPVEGGRPLVIKGAYHEILFEKDAMRSVALHAIVDFFNRHN
4. MATEPPKIVWNEGKRRFETEDHEAFIEYKMRNNGKVMDLVHTYVPSFKRGLGLASHLCVAAFEHASSHSISIIPSCSYVSDTFLPRNPSWKPLIHSEVFKSSI
5. MAHGVNIYNVYSISIIALLASSFLLYAQEAKGLENAMLFLSIIFPYAFYLNGHILLYLVLPAYLIVTSSVTFHYYIYELIPTLIYYFGILPKFINYNVRLMTILWES
6. MAQLPASMRRKRAAITSIHEKPPSRKQKLVNAGGWILLCIAFVVLAAGVYGLYKVITDAKIADLSIVGTRSVVEQNQLQQHIQPIIKDNYFTSDLEQIRDKALEISWVDRVVVSRAWPNSIRVRIMPRHAIARWGTGRLLSDSGDVYAEAELKNHPNLPMLHGPITQSKAMMRRYNEINQLFQPVNLRLTELYLTERMTWFMQFDSGLRVIVDQDQTMSKLQRLSHLAQTDLKPVWSKISAIDLRYRNGLSLQWKTGVPPKILNGQFVVTSDDTNVASGMTAKP
7. MMRTGFQGVARLVHHKALYRSPQTLPRLHLASAFGSSTDSLVARFCGEKTDLKDYALPNASWCPDMLSLYQEFLEKTKSGSWVKLPSFKSNRDHIRGLKLPFGLVAASDKQDWRLFTRSIQLEGQGYEYVIFFHPSEKKSVCLFQPGPYLEGAPGFAHGGSLAALMDETYSKTAYLAGEGLFTLSFNIKFKNLIPVGSLAVLDLQVEKIEDQKLYMSCIAQSRDKQTVYAKSSGVFLQLQLEEEQSGEQ

**Result**
1. failed
2. not failed
3. failed
4. not failed
5. failed
6. failed
7. failed
